Biological target: Corticotropin-releasing factor receptor 2/Corticotropin-releasing factor-binding protein (Homo sapiens, UniProt P24387+Q13324)
Sequence (Q13324 whole entry): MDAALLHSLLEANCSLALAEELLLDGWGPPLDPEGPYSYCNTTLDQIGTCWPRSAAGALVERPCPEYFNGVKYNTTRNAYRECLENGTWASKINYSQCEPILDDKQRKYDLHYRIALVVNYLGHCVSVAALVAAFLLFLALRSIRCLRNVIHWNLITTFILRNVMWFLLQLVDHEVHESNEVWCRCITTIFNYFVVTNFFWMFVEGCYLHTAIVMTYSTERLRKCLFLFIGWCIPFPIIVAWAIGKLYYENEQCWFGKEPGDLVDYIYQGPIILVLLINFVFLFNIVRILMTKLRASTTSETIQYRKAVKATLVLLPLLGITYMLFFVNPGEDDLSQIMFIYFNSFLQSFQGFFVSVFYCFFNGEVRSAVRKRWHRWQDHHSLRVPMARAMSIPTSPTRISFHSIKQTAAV
Sequence (P24387 whole entry): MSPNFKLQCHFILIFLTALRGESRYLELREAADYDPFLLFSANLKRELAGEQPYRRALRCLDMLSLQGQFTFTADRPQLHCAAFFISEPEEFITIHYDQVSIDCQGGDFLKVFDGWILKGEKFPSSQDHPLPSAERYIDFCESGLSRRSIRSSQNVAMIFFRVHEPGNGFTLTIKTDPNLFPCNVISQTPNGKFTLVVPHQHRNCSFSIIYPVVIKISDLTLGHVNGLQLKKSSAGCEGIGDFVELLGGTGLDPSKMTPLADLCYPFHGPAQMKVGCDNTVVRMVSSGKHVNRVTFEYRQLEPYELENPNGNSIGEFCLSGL
Assay: activators of CRF receptor 2 with binding protein – uHTS hits, confirmation (AID 602473)
Type: functional
Settings: read-out: EC50_Mean
Calls of active or inactive are those of the source. Cut-off read from the data, not from the text of the source: actives have a measured EC50 and inactives only a lower limit.
Listing of entries alongside the reported EC50.
recorded-metric: EC50

1. COc1ccc(NC(=O)Nc2nnc(C(C)(C)C)s2)cc1; > 53 µM (inactive)
2. COCCNC(=S)N1CCc2cc(OC)c(OC)cc2C1COc1ccc(C(C)C)cc1 (configuration not stated); > 53 µM (inactive)
3. NC1=NC(=O)S/C1=C\c1ccc(O)cc1; > 53 µM (inactive)
4. O=c1cc(-c2ccccc2)ss1; > 53 µM (inactive)
5. CN(CCOc1ccc(Cl)cc1)C(=O)C1CCN(C(=O)c2ccc(Cl)cc2)CC1; > 53 µM (inactive)
6. Brc1ccc(CSc2nnc(Cc3c[nH]c4ccccc34)o2)cc1; > 53 µM (inactive)
7. O=C(NCc1ccccc1)C1=C[C@H](c2ccccc2)C[C@H](OCc2ccc(CO)cc2)O1; > 53 µM (inactive)
8. Cc1ccc(-c2cc(C(=O)NCc3ccccn3)c3ccccc3n2)cc1C; > 53 µM (inactive)
9. O=C(O)C1CC(=O)N(CCOc2ccccc2)C1 (configuration not stated); > 53 µM (inactive)
10. COc1ccc2c(c1)c(CC(=O)Nc1cc(C)ccc1C)c(C)n2C(=O)c1ccc(Cl)cc1; > 53 µM (inactive)
11. COc1ccc(CN(C)Cc2nc3scc(-c4ccccc4)c3c(=O)[nH]2)cc1OC; > 53 µM (inactive)
12. Cn1c(=O)c(C(=O)COc2ccc(C#N)cc2)c(N)n(Cc2ccccc2)c1=O; 10.9 µM (active)
13. O=C(c1ccc(F)cc1Cl)N(Cc1ccco1)C1CCS(=O)(=O)C1 (configuration not stated); > 53 µM (inactive)
14. CC(=O)c1c(C)c2c(n1CCN(C)C)CCCC2; 2.74 µM (active)
15. O=C(NC(=S)NCC1CCCO1)C(c1ccccc1)c1ccccc1 (configuration not stated); > 53 µM (inactive)
16. O=C(Nc1ccccc1)c1ccccc1NC(=O)C(F)(F)F; > 53 µM (inactive)
17. Cc1cccc(/N=C/c2[nH]c3ccc(Br)c(Cl)c3c2O)c1; 0.46 µM (active)

Reference source for all entries: ChEMBL document CHEMBL1201862
